Cited source: patent US6914045B2

For each entry below, report its MIC Staphylococcus aureus (GC 4545) value.
# Tested on: Staphylococcus sp.
# Assay Protocol: in vitro antibacterial evaluation, MIC by broth dilution
# Assay type: cell-based
# Conditions Used: strain GC 4545; broth dilution, 18 hours at 35° C.
Numbered stars: 1 amine (or outer) side, 2 acyl side, 3 side chain; on linkers, the order of the positions; unused ones are H or OH. Square brackets hold non-standard residues; d marks the D form. Peptide text beside a SMILES is read from it. ξ: configuration not given here. X1 = N=C1NCC(C(O)C(N[*:1])C(=O)[*:2])N1C1OC(CO)C(O)C(O)C1O; ξEnduracididine(βξ-OH,4'ξ) = N=C1NCC(C(O)C(N)C(=O)O)N1; ξCha(3ξ-Me) = CC(C1CCCCC1)C(N)C(=O)O; Cha = N[CH](CC1CCCCC1)C(=O)O

Ask | I would be grateful if you could share the reported MIC Staphylococcus aureus (GC 4545) for CC(c1ccccc1)C1NC(=O)CNC(=O)C(CO)NC(=O)C(C(O)C2CNC(=N)N2C2OC(CO)C(O)C(O)C2O)NC(=O)C(C(O)C2CNC(=N)N2)NC(=O)C(Cc2ccc3oc(=O)[nH]c3c2)NC1=O (stereo not drawn) .
Reply | >128 µg/mL

Ask | Same again, this time with CC(C1CCCCC1)C1NC(=O)CNC(=O)C(CO)NC(=O)C(C(O)C2CNC(=N)N2C2OC(CO)C(O)C(O)C2O)NC(=O)C(C(O)C2CNC(=N)N2)NC(=O)C(CC2CCCCC2)NC1=O (stereo not drawn) [Example 53] (cyclo(G[ξCha(3ξ-Me)][Cha][ξEnduracididine(βξ-OH,4'ξ)][X1]S); configuration not given here)
Reply | 2 µg/mL

Ask | Same again, this time with CC(=O)Nc1cc(CC2NC(=O)C(C(C)c3ccccc3)NC(=O)CNC(=O)C(CO)NC(=O)C(C(O)C3CNC(=N)N3C3OC(CO)C(O)C(O)C3O)NC(=O)C(C(O)C3CNC(=N)N3)NC2=O)ccc1O (stereo not drawn)
Reply | 64 µg/mL
